The measured values listed here are drawn from patent US12351559B2.

Target: Kv7.2/7.3 (Homo sapiens, UniProt O43525+O43526)
Construct: host or cells: HEK cells, tetracycline-inducible expression
Experiment: Kv7.2/7.3 activation assay, QPatch planar patch-clamp, single concentration screen
Assay type: cell-based
Design: key: <1.2-fold increase over baseline (−); +/−: as a range from <1.2-fold increase over baseline (−) up to >6-fold increase over baseline (+++); as a range from <1.2-fold increase over baseline (−) up to >6-fold increase over baseline (+++); as a range from <1.2-fold increase over baseline (−) up to >6-fold increase over baseline (+++); >6-fold increase over baseline (+++)
Conditions: Kv7.2/Kv7.3 co-expressing HEK cells, compound 3 μM, steady-state current at end of 2 s pulse to −30 mV
Reported property: Kv7.2/7.3 Activity: increase in current over baseline

These recorded examples may help you get a feel for the data.
{"Compound": "CC(C)(O)CC(=O)Nc1nc2ccc(C(F)(F)F)cc2n1C1CCC1", "Endpoint value": "+"}
{"Compound": "CC(C)(O)Cc1ccc2nc(NC(=O)[C@H]3CC3(C)C)n(C3CCC3)c2c1F", "Endpoint value": "+"}
{"Compound": "COc1ccc2nc(NC(=O)[C@@H](C)C(C)C)n(C(C)C)c2c1", "Endpoint value": "+/−"}
{"Compound": "C[C@@](O)(CC(=O)Nc1nc2cc(C(F)(F)F)cc(F)c2n1C1CCC1)C(F)(F)F", "Endpoint value": "+/−"}

// each compound listed below needs its Kv7.2/7.3 Activity: increase in current over baseline
1. CC(C)(C)CC(=O)Nc1nc2ccc(C(F)F)cc2n1C1CCC1
2. CC(C)[C@H](C)C(=O)Nc1nc2ccc(CO)cc2n1C1CCC1
3. CC(C)(C)CC(=O)Nc1nc2ccc(CC(=O)O)c(F)c2n1C1CCC1
4. CC(C)c1ccc2nc(NC(=O)[C@@H](C)C(C)C)n(C3CCC3)c2c1
5. N#Cc1ccc2nc(NC(=O)C3CC(F)(F)C3)n(C3CCC3)c2c1
6. CC(C)(O)CC(=O)Nc1nc2ccc(C(F)(F)F)cc2n1-c1ccc(OC(F)(F)F)cc1
7. CC1(C)C[C@@H]1C(=O)Nc1nc2ccc(C#N)cc2n1C1CCC1

Out:
["++", "+/−", "+/−", "+", "+", "+", "++"]

###

Target: Kv7.2/7.3 (Homo sapiens, UniProt O43525+O43526)
Construct: host or cells: HEK cells, tetracycline-inducible expression
Experiment: Kv7.2/7.3 activation assay, QPatch planar patch-clamp, single concentration screen
Type: cell-based
Set-up: key: <1.2-fold increase over baseline (−); +/−: as a range from <1.2-fold increase over baseline (−) up to >6-fold increase over baseline (+++); as a range from <1.2-fold increase over baseline (−) up to >6-fold increase over baseline (+++); as a range from <1.2-fold increase over baseline (−) up to >6-fold increase over baseline (+++); >6-fold increase over baseline (+++)
Conditions: Kv7.2/Kv7.3 co-expressing HEK cells, compound 3 μM, steady-state current at end of 2 s pulse to −30 mV
Reported property: Kv7.2/7.3 Activity: increase in current over baseline

{"Compound": "CC(C)(C(=O)Nc1nc2ccc(C#N)cc2n1C1CCC1)C(O)c1ccccc1 (stereo not drawn)", "Endpoint value": "+/−"}
{"Compound": "Cc1cc(-n2c(NC(=O)CC(C)(C)C)nc3ccc(C(F)(F)F)cc32)on1", "Endpoint value": "+"}
{"Compound": "CC(C)(O)CC(=O)Nc1nc2ccc(C#N)cc2n1C1CCC1", "Endpoint value": "+"}
{"Compound": "Cc1cc2nc(NC(=O)CC(C)(C)C)n(C(C)(C)C)c2cc1C#N", "Endpoint value": "+"}
{"Compound": "CC(O)c1ccc2nc(NC(=O)CC(C)(C)C)n(C3CCC3)c2c1 (stereo not drawn)", "Endpoint value": "+"}
{"Compound": "CC(C)(O)Cc1ccc2nc(NC(=O)[C@H]3CC3(C)C)n(-c3ccc(F)cc3)c2c1F", "Endpoint value": "+"}

// each compound listed below needs its Kv7.2/7.3 Activity: increase in current over baseline
1. C[C@](O)(CC(=O)Nc1nc2ccc(C#N)cc2n1C1CCC1)c1ccccc1
2. Cc1cc2nc(NC(=O)C3CC(F)(F)C3)n(C(C)(C)C)c2cc1C#N

Out:
1: +; 2: +/−

###

Target: Kv7.2/7.3 (Homo sapiens, UniProt O43525+O43526)
Construct: host or cells: HEK cells, tetracycline-inducible expression
Experiment: Kv7.2/7.3 activation assay, QPatch planar patch-clamp, single concentration screen
Format: cell-based
Parameters: key: <1.2-fold increase over baseline (−); +/−: as a range from <1.2-fold increase over baseline (−) up to >6-fold increase over baseline (+++); as a range from <1.2-fold increase over baseline (−) up to >6-fold increase over baseline (+++); as a range from <1.2-fold increase over baseline (−) up to >6-fold increase over baseline (+++); >6-fold increase over baseline (+++)
Details: Kv7.2/Kv7.3 co-expressing HEK cells, compound 3 μM, steady-state current at end of 2 s pulse to −30 mV
Reported property: Kv7.2/7.3 Activity: increase in current over baseline

These recorded examples may help you get a feel for the data.
{"Molecule": "Cc1cc2nc(NC(=O)C[C@@](C)(O)c3ccccc3)n(C(C)(C)C)c2cc1C#N", "Endpoint value": "+"}
{"Molecule": "CC(C)[C@H](C)C(=O)Nc1nc2ccc(C(C)(C)O)cc2n1C1CCC1", "Endpoint value": "++"}
{"Molecule": "CC(C)(C)CC(=O)Nc1nc2ccc(Cl)cc2n1C1CCC1", "Endpoint value": "+"}
{"Molecule": "C[C@](O)(CC(=O)Nc1nc2ccc(C#N)cc2n1-c1ccc(F)cn1)c1ccccc1", "Endpoint value": "+"}
{"Molecule": "CC(C)(O)CC(=O)Nc1nc2ccc(C(F)(F)F)cc2n1-c1cc(F)cc(F)c1", "Endpoint value": "+"}
{"Molecule": "COC(=O)c1cccc2nc(NC(=O)CC(C)(C)C)n(C3CCC3)c12", "Endpoint value": "+/−"}
{"Molecule": "Cc1cc(-n2c(NC(=O)CC(C)(C)C)nc3ccc(C#N)cc32)on1", "Endpoint value": "+"}
{"Molecule": "Cc1cc2nc(NC(=O)C[C@](C)(O)c3ccccc3F)n(C(C)(C)C)c2cc1C#N", "Endpoint value": "++"}
{"Molecule": "CC1(C)C[C@@H]1C(=O)Nc1nc2ccc(Cl)cc2n1C1CCC1", "Endpoint value": "+"}
{"Molecule": "CC1(C)C[C@@H]1C(=O)Nc1nc2ccc(C#N)cc2n1-c1ccc(F)cc1", "Endpoint value": "+"}

// each molecule listed below needs its Kv7.2/7.3 Activity: increase in current over baseline
1. Cc1cc2nc(NC(=O)C[C@](C)(O)C(F)(F)F)n(C(C)(C)C)c2cc1C#N
2. CCC(O)c1ccc2nc(NC(=O)CC(C)(C)C)n(C3CCC3)c2c1 (stereo not shown)
3. CC1(n2c(NC(=O)C[C@](C)(O)c3ccccc3)nc3ccc(C#N)cc32)CCC1

Out:
["+/−", "+", "++"]

// each molecule listed below needs its Kv7.2/7.3 Activity: increase in current over baseline
1. CCOC(=O)c1ccc2nc(NC(=O)CC(C)(C)C)n(C3CCC3)c2c1
2. CC(C)(O)c1ccc2nc(NC(=O)C3CCC(F)(F)C3)n(C3CCC3)c2c1 (stereo not shown)

Out:
+/−
+/−
